Source listed as patent US11084814B2.

Target: CDK4/cyclin D3 (Homo sapiens, UniProt P11802)
Sequence (P11802 whole entry): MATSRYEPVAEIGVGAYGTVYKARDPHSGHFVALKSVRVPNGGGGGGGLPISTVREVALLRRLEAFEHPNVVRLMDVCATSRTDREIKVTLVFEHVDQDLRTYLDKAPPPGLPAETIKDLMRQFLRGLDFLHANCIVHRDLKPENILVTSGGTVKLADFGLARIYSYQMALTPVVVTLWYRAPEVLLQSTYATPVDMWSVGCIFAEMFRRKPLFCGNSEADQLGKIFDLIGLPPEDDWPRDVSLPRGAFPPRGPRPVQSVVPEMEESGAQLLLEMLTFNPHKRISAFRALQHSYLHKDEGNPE
Sequence (P30281 whole entry partner): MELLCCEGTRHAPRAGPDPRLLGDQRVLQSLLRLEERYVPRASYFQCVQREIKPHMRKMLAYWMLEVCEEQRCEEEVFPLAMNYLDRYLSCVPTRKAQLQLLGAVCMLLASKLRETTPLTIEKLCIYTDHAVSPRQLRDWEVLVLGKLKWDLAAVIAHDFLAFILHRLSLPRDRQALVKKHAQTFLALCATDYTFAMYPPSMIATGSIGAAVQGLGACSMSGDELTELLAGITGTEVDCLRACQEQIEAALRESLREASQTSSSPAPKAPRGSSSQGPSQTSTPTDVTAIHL
Experiment: Human CDK4/cyclin D3 inhibitory activity (QS S Assist CDK4/Cyclin D3_FP Kit, IMAP fluorescent polarization)
Settings: read-out: CDK4 Activity symbol
Procedure: Human CDK4/Cyclin D3 Inhibitory Activity Each compound was analyzed for CDK4/cyclin D3 inhibitory activity with an assay kit (QS S Assist CDK4/Cyclin D3_FP Kit, available from Carna Biosciences, Inc.). […] Specifically, the kinase activity is determined through quantification of a variation in fluorescent polarization caused by binding of a kinase-phosphorylated fluorescent substance to an IMAP-binding reagent. […]
Recorded IC50, one value per entry.

These recorded examples may help you get a feel for the data.
{"columns": ["Molecule", "IC50"],
 "data": [
  ["CC(O)c1cc2cnc(Nc3ccc(N4CCNCC4=O)cn3)nc2c(N2CCOCC2C)n1 (stereo not shown)", "10 to 100 nM"],
  ["Cc1nc(Nc2ncc3cc([C@@H](C)O)nc(N4C5CCC4CC5)c3n2)ccc1N1CCN(C)CC1", "< 10 nM"],
  ["OCCN1CCN(Cc2ccc(Nc3ncc4cc(C(F)F)nc(N5CCCCC5)c4n3)nc2)CC1", "< 10 nM"]
]}

Continue with the next molecule.
Report IC50 for CN1CCN(c2ccc(Nc3ncc4cc(CO)nc(C5CCCCC5)c4n3)nc2)CC1 tested on CDK4/cyclin D3 (Homo sapiens, UniProt P11802).
< 10 nM

----------
Recorded IC50, one value per entry.
Biological target: CDK4/cyclin D3 (Homo sapiens, UniProt P11802)
Assay: Human CDK4/cyclin D3 inhibitory activity (QS S Assist CDK4/Cyclin D3_FP Kit, IMAP fluorescent polarization)
Details: read-out: CDK4 Activity symbol

These recorded examples may help you get a feel for the data.
{"columns": ["Compound", "Tested target", "IC50"],
 "data": [
  ["C[C@@H](O)c1cc2cnc(Nc3ccc(C(=O)N4CCN(C)CC4)cn3)nc2c(N2CCC(F)CC2)n1 [Compound 320]", "CDK4/cyclin D3 (Homo sapiens, UniProt P11802)", "< 10 nM"],
  ["CN1CCN(c2ccc(Nc3ncc4cc(C(F)F)nc(N5CCCCC5)c4n3)nc2)CC1 [Compound 13]", "CDK4/cyclin D3 (Homo sapiens, UniProt P11802)", "< 10 nM"],
  ["C[C@@H](O)c1cc2cnc(Nc3ccc(N4CCN(C)CC4)nn3)nc2c(N2CCCCC2)n1 [Compound 123]", "CDK4/cyclin D3 (Homo sapiens, UniProt P11802)", "< 10 nM"],
  ["C[C@@H](O)c1cc2cnc(Nc3ccc4c(n3)CCN(C(=O)CN3CCC3)C4)nc2c(N2C3CCC2CC3)n1 [Compound 230]", "CDK4/cyclin D3 (Homo sapiens, UniProt P11802)", "< 10 nM"],
  ["C[C@@H](O)c1cc2cnc(Nc3ccc(N4CCN(CCO)CCC4=O)cn3)nc2c(N2CCCCC2)n1 [Compound 151]", "CDK4/cyclin D3 (Homo sapiens, UniProt P11802)", "< 10 nM"]
]}

Report IC50 for C[C@@H](O)c1cc2cnc(Nc3ccc(N4CCN(C)CC4=O)cn3)nc2c(N2CCCC2)n1 [Compound 73] tested on CDK4/cyclin D3 (Homo sapiens, UniProt P11802).
10 to 100 nM

Same for C[C@@H](O)Cc1cc2cnc(Nc3ccc4c(n3)CCN(CCO)C4)nc2c(N2CCCCC2)n1 [Compound 170]
10 to 100 nM

Same for C[C@@H](O)c1cc2cnc(Nc3ccc(CN4CCC(O)CC4)cn3)nc2c(N2CCCCC2)n1 [Compound 65]
< 10 nM

Same for C[C@@H](O)c1cc2cnc(Nc3ccc(O[C@H]4CCCN(CCO)C4)cn3)nc2c(N2C3CCC2CC3)n1 [Compound 253]
< 10 nM

Same for C[C@@H](O)c1cc2cnc(Nc3ccc(CN4CCN(CCO)CC4)cn3)nc2c(N2CCC(C(F)(F)F)CC2)n1 [Compound 84]
< 10 nM
